Reference source: BindingDB's records for doi:10.1016/j.bioorg.2016.01.003

Data export: Ki values recorded with Adenosine receptor A1 (Homo sapiens, UniProt P30542).
Sequence (P30542 whole entry): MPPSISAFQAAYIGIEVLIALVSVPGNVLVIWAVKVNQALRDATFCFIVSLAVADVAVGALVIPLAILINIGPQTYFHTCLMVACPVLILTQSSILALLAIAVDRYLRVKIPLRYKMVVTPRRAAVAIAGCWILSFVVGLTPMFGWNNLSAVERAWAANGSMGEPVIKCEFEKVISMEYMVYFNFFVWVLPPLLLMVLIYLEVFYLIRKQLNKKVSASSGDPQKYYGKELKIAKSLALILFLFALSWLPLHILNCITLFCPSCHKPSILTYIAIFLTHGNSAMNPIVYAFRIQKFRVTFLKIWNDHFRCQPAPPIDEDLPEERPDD
Please respond with the number in µM and leave the unit unwritten.

Cn1c(=O)c2[nH]c(-c3cccc(OCC(=O)N4CCCC4)c3)nc2n(C)c1=O	3.29
CN(C)CCNC(=O)COc1cccc(-c2nc3c([nH]2)c(=O)n(C)c(=O)n3C)c1	0.683
COc1cc(-c2nc3c([nH]2)c(=O)n(C)c(=O)n3C)ccc1OCC(=O)NCCN(C)C	9.25
COc1ccc(CCNC(=O)COc2cccc(-c3nc4c([nH]3)c(=O)n(C)c(=O)n4C)c2)cc1OC	5.98
COc1ccc(-c2nc3c([nH]2)c(=O)n(C)c(=O)n3C)cc1OCC(=O)NCCN(C)C	0.847
COc1ccc(-c2nc3c([nH]2)c(=O)n(C)c(=O)n3C)cc1OCC(=O)N1CCCC1	5.94
COC(=O)COc1cc(-c2nc3c([nH]2)c(=O)n(C)c(=O)n3C)ccc1OC	11.8
COc1ccc(-c2nc3c([nH]2)c(=O)n(C)c(=O)n3C)cc1OCC(=O)N1CCCCC1	1.62
COc1ccc(-c2nc3c([nH]2)c(=O)n(C)c(=O)n3C)cc1OCC(=O)N1CCN(C)CC1	3.64
Cn1c(=O)c2[nH]c(-c3ccc(OCC(=O)N4CCCCCC4)cc3)nc2n(C)c1=O	0.609

Field Ki (Adenosine receptor A1 (Homo sapiens, UniProt P30542)), entry `COc1ccc(-c2nc3c([nH]2)c(=O)n(C)c(=O)n3C)cc1OCC(=O)N1CCOCC1` : 3.51

Field Ki (Adenosine receptor A1 (Homo sapiens, UniProt P30542)), entry `CN1CCN(C(=O)COc2cccc(-c3nc4c([nH]3)c(=O)n(C)c(=O)n4C)c2)CC1` : 1.9

Field Ki (Adenosine receptor A1 (Homo sapiens, UniProt P30542)), entry `COC(=O)COc1ccc(-c2nc3c([nH]2)c(=O)n(C)c(=O)n3C)cc1` : 0.319

###

target: Adenosine receptor A2a (Homo sapiens, UniProt P29274)
Sequence (P29274 whole entry): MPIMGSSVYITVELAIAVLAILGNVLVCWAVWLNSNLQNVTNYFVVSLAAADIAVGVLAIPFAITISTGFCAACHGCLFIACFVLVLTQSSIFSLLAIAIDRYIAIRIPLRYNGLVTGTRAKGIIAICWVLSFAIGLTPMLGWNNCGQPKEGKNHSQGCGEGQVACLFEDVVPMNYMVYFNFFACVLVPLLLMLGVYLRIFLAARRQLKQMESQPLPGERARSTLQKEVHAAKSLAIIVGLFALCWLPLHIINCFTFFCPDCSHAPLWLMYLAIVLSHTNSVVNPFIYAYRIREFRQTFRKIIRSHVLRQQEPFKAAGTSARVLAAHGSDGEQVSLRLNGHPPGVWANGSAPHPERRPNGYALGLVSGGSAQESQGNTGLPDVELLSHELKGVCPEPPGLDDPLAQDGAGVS
measured-endpoint: Ki (nM)
Please respond with the number in nM and leave the unit unwritten.

Field Ki (Adenosine receptor A2a (Homo sapiens, UniProt P29274)), entry `COc1ccc(-c2nc3c([nH]2)c(=O)n(C)c(=O)n3C)cc1OCC(=O)N1CCOCC1` : 466

Field Ki (Adenosine receptor A2a (Homo sapiens, UniProt P29274)), entry `COc1ccc(-c2nc3c([nH]2)c(=O)n(C)c(=O)n3C)cc1OCC(=O)N1CCCCC1` : 76

Field Ki (Adenosine receptor A2a (Homo sapiens, UniProt P29274)), entry `Cn1c(=O)c2[nH]c(-c3cccc(OCC(=O)N4CCCC4)c3)nc2n(C)c1=O` : 237

Field Ki (Adenosine receptor A2a (Homo sapiens, UniProt P29274)), entry `CN1CCN(C(=O)COc2cccc(-c3nc4c([nH]3)c(=O)n(C)c(=O)n4C)c2)CC1` : 561

Field Ki (Adenosine receptor A2a (Homo sapiens, UniProt P29274)), entry `Cn1c(=O)c2[nH]c(-c3ccc(OCC(=O)N4CCCCC4)cc3)nc2n(C)c1=O` : 178

Field Ki (Adenosine receptor A2a (Homo sapiens, UniProt P29274)), entry `COc1ccc(CCNC(=O)COc2cccc(-c3nc4c([nH]3)c(=O)n(C)c(=O)n4C)c2)cc1OC` : 1390

Field Ki (Adenosine receptor A2a (Homo sapiens, UniProt P29274)), entry `COc1cc(-c2nc3c([nH]2)c(=O)n(C)c(=O)n3C)ccc1OCC(=O)N1CCOCC1` : 2740

Field Ki (Adenosine receptor A2a (Homo sapiens, UniProt P29274)), entry `CCN(CC)CCNC(=O)COc1ccc(-c2nc3c([nH]2)c(=O)n(C)c(=O)n3C)cc1` : 63

Field Ki (Adenosine receptor A2a (Homo sapiens, UniProt P29274)), entry `COC(=O)COc1ccc(-c2nc3c([nH]2)c(=O)n(C)c(=O)n3C)cc1OC` : 4380

Field Ki (Adenosine receptor A2a (Homo sapiens, UniProt P29274)), entry `COc1cc(-c2nc3c([nH]2)c(=O)n(C)c(=O)n3C)ccc1OCC(=O)n1ccnc1` : 7740

###

pKi: −log10 of the molar value.
Data export: pKi values recorded with Adenosine receptor A1 (Homo sapiens, UniProt P30542).

// solved cases for pKi follow
COC(=O)COc1ccc(-c2nc3c([nH]2)c(=O)n(C)c(=O)n3C)cc1OC	< 4.52
CN(C)CCNC(=O)COc1ccc(-c2nc3c([nH]2)c(=O)n(C)c(=O)n3C)cc1	6.66
CCN(CC)CCNC(=O)COc1ccc(-c2nc3c([nH]2)c(=O)n(C)c(=O)n3C)cc1OC	< 5.00

pKi reading for `COc1cc(-c2nc3c([nH]2)c(=O)n(C)c(=O)n3C)ccc1OCC(=O)N1CCOCC1` : < 4.52

pKi reading for `Cn1c(=O)c2[nH]c(-c3cccc(OCC(=O)N4CCOCC4)c3)nc2n(C)c1=O` : 5.27

###

biological target: UniProt:P29275; experiment: Radioligand Binding Assay
pKi: −log10 of the molar value.
// values below are reported pKi

// solved cases for pKi follow
CN1CCN(C(=O)COc2cccc(-c3nc4c([nH]3)c(=O)n(C)c(=O)n4C)c2)CC1	5.09
COc1cc(-c2nc3c([nH]2)c(=O)n(C)c(=O)n3C)ccc1OCC(=O)N1CCCC1	< 4.52

pKi reading for `Cn1c(=O)c2[nH]c(-c3cccc(OCC(=O)N4CCOCC4)c3)nc2n(C)c1=O` : < 5.00

###

target: Adenosine receptor A2b (Homo sapiens, UniProt P29275)
Sequence (P29275 whole entry): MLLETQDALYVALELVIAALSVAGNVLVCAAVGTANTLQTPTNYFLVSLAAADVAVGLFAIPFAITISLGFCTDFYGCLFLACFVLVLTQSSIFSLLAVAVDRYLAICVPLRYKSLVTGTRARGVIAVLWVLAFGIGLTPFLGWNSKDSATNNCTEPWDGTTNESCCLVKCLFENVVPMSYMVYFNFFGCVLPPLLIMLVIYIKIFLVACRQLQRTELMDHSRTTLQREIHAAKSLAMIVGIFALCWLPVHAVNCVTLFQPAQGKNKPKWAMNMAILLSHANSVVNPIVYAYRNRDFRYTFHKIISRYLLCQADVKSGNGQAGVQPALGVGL
measured-endpoint: Ki

// solved cases for Ki follow
COC(=O)COc1ccc(-c2nc3c([nH]2)c(=O)n(C)c(=O)n3C)cc1OC	> 10 µM
COc1ccc(CCNC(=O)COc2ccc(-c3nc4c([nH]3)c(=O)n(C)c(=O)n4C)cc2OC)cc1OC	> 30 µM
COc1ccc(-c2nc3c([nH]2)c(=O)n(C)c(=O)n3C)cc1OCC(=O)N1CCOCC1	> 10 µM
COc1ccc(-c2nc3c([nH]2)c(=O)n(C)c(=O)n3C)cc1OCC(=O)N1CCCCCC1	3.94 µM
COc1cc(-c2nc3c([nH]2)c(=O)n(C)c(=O)n3C)ccc1OCC(=O)N1CCCCCC1	7.82 µM
CN(C)CCNC(=O)COc1cccc(-c2nc3c([nH]2)c(=O)n(C)c(=O)n3C)c1	2.83 µM
COc1ccc(CCNC(=O)COc2cccc(-c3nc4c([nH]3)c(=O)n(C)c(=O)n4C)c2)cc1OC	> 10 µM
CCN(CC)CCNC(=O)COc1cccc(-c2nc3c([nH]2)c(=O)n(C)c(=O)n3C)c1	4.91 µM

Field Ki (Adenosine receptor A2b (Homo sapiens, UniProt P29275)), entry `COc1ccc(-c2nc3c([nH]2)c(=O)n(C)c(=O)n3C)cc1OCC(=O)N1CCCCC1` : > 10 µM

Field Ki (Adenosine receptor A2b (Homo sapiens, UniProt P29275)), entry `COc1ccc(-c2nc3c([nH]2)c(=O)n(C)c(=O)n3C)cc1OCC(=O)N1CCCC1` : > 10 µM

Field Ki (Adenosine receptor A2b (Homo sapiens, UniProt P29275)), entry `Cn1c(=O)c2[nH]c(-c3cccc(OCC(=O)n4ccnc4)c3)nc2n(C)c1=O` : > 30 µM

Field Ki (Adenosine receptor A2b (Homo sapiens, UniProt P29275)), entry `COc1cc(-c2nc3c([nH]2)c(=O)n(C)c(=O)n3C)ccc1OCC(=O)N1CCOCC1` : > 30 µM

Field Ki (Adenosine receptor A2b (Homo sapiens, UniProt P29275)), entry `COC(=O)COc1cc(-c2nc3c([nH]2)c(=O)n(C)c(=O)n3C)ccc1OC` : > 10 µM

Field Ki (Adenosine receptor A2b (Homo sapiens, UniProt P29275)), entry `Cn1c(=O)c2[nH]c(-c3cccc(OCC(=O)N4CCCC4)c3)nc2n(C)c1=O` : > 10 µM

Field Ki (Adenosine receptor A2b (Homo sapiens, UniProt P29275)), entry `COC(=O)COc1ccc(-c2nc3c([nH]2)c(=O)n(C)c(=O)n3C)cc1` : 0.98 µM

Field Ki (Adenosine receptor A2b (Homo sapiens, UniProt P29275)), entry `COc1cc(-c2nc3c([nH]2)c(=O)n(C)c(=O)n3C)ccc1OCC(=O)n1ccnc1` : > 30 µM

Field Ki (Adenosine receptor A2b (Homo sapiens, UniProt P29275)), entry `COc1ccc(-c2nc3c([nH]2)c(=O)n(C)c(=O)n3C)cc1OCC(=O)N1CCN(C)CC1` : 6.54 µM

Field Ki (Adenosine receptor A2b (Homo sapiens, UniProt P29275)), entry `COc1ccc(CCNC(=O)COc2cc(-c3nc4c([nH]3)c(=O)n(C)c(=O)n4C)ccc2OC)cc1OC` : > 30 µM

Field Ki (Adenosine receptor A2b (Homo sapiens, UniProt P29275)), entry `Cn1c(=O)c2[nH]c(-c3ccc(OCC(=O)N4CCCC4)cc3)nc2n(C)c1=O` : 1.49 µM
